Lab note: IC50 readings collected with human glutathione reductase (hGR) (Homo sapiens, UniProt P00390) for the following compounds.
Sequence (P00390 44-522): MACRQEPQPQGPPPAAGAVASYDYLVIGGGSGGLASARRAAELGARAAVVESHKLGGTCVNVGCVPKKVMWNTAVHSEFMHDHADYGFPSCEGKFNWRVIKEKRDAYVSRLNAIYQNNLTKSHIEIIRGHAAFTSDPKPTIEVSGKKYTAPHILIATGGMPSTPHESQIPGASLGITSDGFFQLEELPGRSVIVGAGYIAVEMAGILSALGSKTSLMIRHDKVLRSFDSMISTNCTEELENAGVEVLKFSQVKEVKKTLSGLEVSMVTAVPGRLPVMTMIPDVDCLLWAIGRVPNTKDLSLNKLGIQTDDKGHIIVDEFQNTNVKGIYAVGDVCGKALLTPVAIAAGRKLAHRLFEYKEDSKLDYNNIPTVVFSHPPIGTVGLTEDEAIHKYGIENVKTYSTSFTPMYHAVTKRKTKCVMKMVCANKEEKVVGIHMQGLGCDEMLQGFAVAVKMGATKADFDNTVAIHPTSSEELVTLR

Below, 2 compounds whose answers are already recorded.
INSERT INTO assay_data (smilesstructure, tgt, propertylabel, reportedmeasurement) VALUES
  ('N#Cc1ccc(OCC2=C(C(F)F)C(=O)c3ccccc3C2=O)cc1', 'human glutathione reductase (hGR) (Homo sapiens, UniProt P00390)', 'IC50', '2.1 µM'),
  ('COc1c(F)cc(OCC2=C(C)C(=O)c3ccccc3C2=O)cc1F', 'human glutathione reductase (hGR) (Homo sapiens, UniProt P00390)', 'IC50', '> 25 µM');

Consider the record given below.
Form field - read-out: IC50; system: human glutathione reductase (hGR) (Homo sapiens, UniProt P00390); submitted item: "CC1=C(COc2ccc(Br)cc2)C(=O)c2ccccc2C1=O" > 5 µM

* * *

Assay: Cyclic voltammetry of menadione derivatives
Type: physicochemical
Conditions: DMSO, 0.1 M n-Bu4NPF6, v = 200 mV s^−1, reference KCl(3 M)/Ag/AgCl; first wave
propertyLabel: Epa1 (V)
Your answer is read as V, so omit the unit and give the number.

Some solved entries appear below for comparison.
INSERT INTO results (compound, propertylabel, reportedmeasurement) VALUES
  ('COc1ccc(OCC2=C(C(F)F)C(=O)c3ccccc3C2=O)cc1C(F)(F)F [Compound 9]', 'Epa1', '−0.215'),
  ('CC1=C(COc2ccc(C#N)cc2)C(=O)c2ccccc2C1=O [Compound 2]', 'Epa1', '−0.492'),
  ('CC1=C(COc2ccc(C(=O)O)cc2)C(=O)c2ccccc2C1=O [Compound 1]', 'Epa1', '−0.532');

Entry N#Cc1ccc(OCC2=C(C(F)F)C(=O)c3ccccc3C2=O)cc1 [Compound 8] : reported Epa1 = ? −0.244

Can you look up the measured Epa1 of COc1ccc(OCC2=C(C)C(=O)c3ccccc3C2=O)cc1C(F)(F)F [Compound 7] for me? −0.506

* * *

Overview of recorded pIC50 for various compounds
Biological target: Sec498Cys TrxR (Homo sapiens, UniProt Q16881)
Assay: hTrxR mutant DTNB assay
pIC50: −log10 of the molar value.

These solved cases illustrate the format of a correct answer.
INSERT INTO measurements (compound, tgt, propertylabel, reportedmeasurement) VALUES
  ('CC1=C(COc2ccc(Br)cc2)C(=O)c2ccccc2C1=O [Compound 5]', 'Sec498Cys TrxR (Homo sapiens, UniProt Q16881)', 'pIC50', '< 4.00'),
  ('N#Cc1ccc(OCC2=C(C(F)F)C(=O)c3ccccc3C2=O)cc1 [Compound 8]', 'Sec498Cys TrxR (Homo sapiens, UniProt Q16881)', 'pIC50', 6.43),
  ('CC1=C(COc2cccc(C(F)(F)F)c2)C(=O)c2ccccc2C1=O [Compound 6]', 'Sec498Cys TrxR (Homo sapiens, UniProt Q16881)', 'pIC50', '< 4.30'),
  ('CC1=C(COc2ccc(Cl)cc2)C(=O)c2ccccc2C1=O [Compound 4]', 'Sec498Cys TrxR (Homo sapiens, UniProt Q16881)', 'pIC50', '< 4.00'),
  ('COc1c(F)cc(OCC2=C(C)C(=O)c3ccccc3C2=O)cc1F [Compound 3]', 'Sec498Cys TrxR (Homo sapiens, UniProt Q16881)', 'pIC50', '< 4.00'),
  ('COc1ccc(OCC2=C(C)C(=O)c3ccccc3C2=O)cc1C(F)(F)F [Compound 7]', 'Sec498Cys TrxR (Homo sapiens, UniProt Q16881)', 'pIC50', '< 4.30'),
  ('CC1=C(COc2ccc(C(=O)O)cc2)C(=O)c2ccccc2C1=O [Compound 1]', 'Sec498Cys TrxR (Homo sapiens, UniProt Q16881)', 'pIC50', 4.40);

Consider the record given below.
Record request: pIC50 value, item CC1=C(COc2ccc(C#N)cc2)C(=O)c2ccccc2C1=O [Compound 2] 5.22
